Numbers sourced from paper PMC10683472.

Measured Library fraction values are reported for all entries that follow.
Target: IRAK4 (Homo sapiens, UniProt Q9NWZ3)
Sequence (Q9NWZ3 1-460): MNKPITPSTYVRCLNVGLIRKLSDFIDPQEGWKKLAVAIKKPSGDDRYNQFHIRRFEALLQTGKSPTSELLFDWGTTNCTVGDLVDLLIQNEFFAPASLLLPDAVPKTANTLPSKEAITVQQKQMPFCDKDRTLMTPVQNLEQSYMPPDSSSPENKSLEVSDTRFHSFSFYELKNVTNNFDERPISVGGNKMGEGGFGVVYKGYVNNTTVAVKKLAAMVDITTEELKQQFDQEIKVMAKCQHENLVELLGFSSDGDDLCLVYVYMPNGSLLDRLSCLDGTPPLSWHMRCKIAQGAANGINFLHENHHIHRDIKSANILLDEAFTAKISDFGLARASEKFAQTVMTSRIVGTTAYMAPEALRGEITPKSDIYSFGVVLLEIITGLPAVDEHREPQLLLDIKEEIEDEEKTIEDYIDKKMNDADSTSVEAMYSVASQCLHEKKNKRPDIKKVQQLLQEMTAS
Test: mRNA display affinity selection against IRAK4, NGS abundance
Format: binding
Parameters: acids 1-460; NP_057207.2) was purchased from Carna Biosciences; purchased Carna Biosciences (Kobe, Japan)
Details: IRAK4 selection pulldown (+); Top100 selection hits, NGS
Simply state the number, no unit and no words.

// solved cases for Library fraction follow
Prompt line: Which Library fraction is reported for this sequence? `TQRWKQKNWS`
Response line: 0.0001

Prompt line: Which Library fraction is reported for this sequence? `SQRYKRRNYK`
Response line: 0.0009

---
Prompt line: Which Library fraction is reported for this sequence? `RVLWKKRNYA`
Response line: 0.0004

Prompt line: Which Library fraction is reported for this sequence? `AQRWRQKCYK`
Response line: 0.0002

Prompt line: Which Library fraction is reported for this sequence? `MMLWKRRMYK`
Response line: 0.0001

Prompt line: Which Library fraction is reported for this sequence? `SLLWHRRIYC`
Response line: 0.0002

Prompt line: Which Library fraction is reported for this sequence? `SVRWKHRIYK`
Response line: 0.0003

Prompt line: Which Library fraction is reported for this sequence? `TQRWNNRNWC`
Response line: 0.0003

Prompt line: Which Library fraction is reported for this sequence? `SVRWKRRDYR`
Response line: 0.0046

* * *

Target: IRAK4 (Homo sapiens, UniProt Q9NWZ3)
Sequence (Q9NWZ3 1-460): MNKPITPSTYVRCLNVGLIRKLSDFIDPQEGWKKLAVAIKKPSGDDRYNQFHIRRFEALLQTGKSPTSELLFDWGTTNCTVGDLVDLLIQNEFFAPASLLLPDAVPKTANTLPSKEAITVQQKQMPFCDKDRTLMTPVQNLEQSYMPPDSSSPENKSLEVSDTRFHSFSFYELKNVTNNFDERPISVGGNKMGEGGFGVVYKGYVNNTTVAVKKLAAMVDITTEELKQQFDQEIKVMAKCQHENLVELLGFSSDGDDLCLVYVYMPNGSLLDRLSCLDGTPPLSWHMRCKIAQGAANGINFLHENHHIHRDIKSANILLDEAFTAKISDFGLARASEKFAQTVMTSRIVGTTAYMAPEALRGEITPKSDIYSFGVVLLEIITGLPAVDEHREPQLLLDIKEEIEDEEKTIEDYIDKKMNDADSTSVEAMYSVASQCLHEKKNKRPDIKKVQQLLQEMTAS
Experiment: mRNA display affinity selection against IRAK4, NGS abundance
Assay type: binding
Set-up: acids 1-460; NP_057207.2) was purchased from Carna Biosciences; purchased Carna Biosciences (Kobe, Japan)
Settings: IRAK4 selection pulldown (+); Top100 selection hits, NGS
measure: Library fraction
Simply state the number, no unit and no words.

// solved cases for Library fraction follow
Prompt line: Which Library fraction is reported for this sequence? `STRWKNRIYR`
Response line: 0.004

Prompt line: Which Library fraction is reported for this sequence? `SVLWKRRIWK`
Response line: 0.033

Prompt line: Which Library fraction is reported for this sequence? `SMLWGRRIYR`
Response line: 0.0016

Now for another entry.
Prompt line: Which Library fraction is reported for this sequence? `SLLYKRRIYK`
Response line: 0.044
